B1: STK38L (parent)
chain: NWKETLVFPPEVPISEKAKDLILR

# Variants of: B1
# method: protein stability index of a GFP-peptide fusion (GPS, HEK-293T) (PSI 1-6); higher = more stable;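 further: lentivirally expressed fusions sorted by FACS into six bins by GFP to DsRed ratio, PSI derived from sequencing read proportions per bin multiplied by bin number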
# recorded conditions: c terminus: a fixed tail appended
Each entry below lists one item and its recorded protein stability index value.
Write no unit; give the number alone.

Solved cases below.
[[record]]
construct_sequence = "NWKETLVFPPEVPIFEKAKDLILR [S15F]"
experimental_result = 2.44

[[record]]
construct_sequence = "NWKETLVFPPEVPISGKAKDLILR [E16G]"
experimental_result = 2.31

[[record]]
construct_sequence = "NWKETLVFPPEVPQSEKAKDLILR [I14Q]"
experimental_result = 3.23

[[record]]
construct_sequence = "NWKETLVFPPQVPISEKAKDLILR [E11Q]"
experimental_result = 3.36

[[record]]
construct_sequence = "AWKETLVFPPEVPISEKAKDLILR [N1A]"
experimental_result = 2.16

[[record]]
construct_sequence = "NWKETLVFPPEVPISEKAKDLGLR [I22G]"
experimental_result = 3.23

[[record]]
construct_sequence = "NWKETLVFPPEVPISEYAKDLILR [K17Y]"
experimental_result = 3.14

[[record]]
construct_sequence = "NWKETIVFPPEVPISEKAKDLILR [L6I]"
experimental_result = 2.86


# ---- query variant ----
What does the data say about its protein stability index? Entry: NWKETLVFPPEVPISEKAKDHILR [L21H]
3.48
